Tested on: HT1080
measurement.notes: MTS proliferation assay, HT1080
Type: cell-based, human
condition.label: HT1080, 72 h incubation; read-out: MTS proliferation assay IC 50 HT1080
We begin with a simple list: items and their reported IC50.
parameter: IC50

{"compound": "Nc1nonc1-c1nc2ccccc2n1COc1ccc([N+](=O)[O-])cc1", "tgt": "HT1080", "parameter": "IC50", "assay.value": "> 1000 nM"}
{"compound": "CCc1ccc(C(=O)Cn2c(-c3nonc3N)nc3ccccc32)cc1", "tgt": "HT1080", "parameter": "IC50", "assay.value": "100 to 1000 nM"}
{"compound": "Cc1cc2nc(-c3nonc3N)n(CC(=O)c3ccc(-c4ccccc4)cc3)c2cc1C", "tgt": "HT1080", "parameter": "IC50", "assay.value": "> 1000 nM"}
{"compound": "Nc1nonc1-c1nc2ccccc2n1COc1ccc(C=O)cc1", "tgt": "HT1080", "parameter": "IC50", "assay.value": "100 to 1000 nM"}
{"compound": "N#CCCNc1nonc1-c1nc2ccccc2n1CC(=O)c1ccc(Br)cc1", "tgt": "HT1080", "parameter": "IC50", "assay.value": "10 to 100 nM"}
{"compound": "Nc1nonc1-c1nc2ccccc2n1CC(=O)c1cccc2ccccc12", "tgt": "HT1080", "parameter": "IC50", "assay.value": "100 to 1000 nM"}
{"compound": "Nc1nonc1-c1nc2ccccc2n1CC(=O)c1cccs1", "tgt": "HT1080", "parameter": "IC50", "assay.value": "100 to 1000 nM"}
{"compound": "COc1ccc(C(=O)Cn2c(-c3nonc3NCCC#N)nc3ccccc32)cc1", "tgt": "HT1080", "parameter": "IC50", "assay.value": "10 to 100 nM"}
{"compound": "Nc1nonc1-c1nc2ccccc2n1COc1cc(C(F)(F)F)cc(C(F)(F)F)c1", "tgt": "HT1080", "parameter": "IC50", "assay.value": "> 1000 nM"}
{"compound": "Nc1nonc1-c1nc2ccccc2n1CC(=O)c1ccc(C(F)(F)F)cc1", "tgt": "HT1080", "parameter": "IC50", "assay.value": "100 to 1000 nM"}
{"compound": "COc1cc2nc(-c3nonc3N)n(CC(=O)c3ccc(-c4ccccc4)cc3)c2cc1OC", "tgt": "HT1080", "parameter": "IC50", "assay.value": "> 1000 nM"}
{"compound": "COc1ccc(C(=O)Cn2c(-c3nonc3N)nc3cc(OC)c(OC)cc32)cc1", "tgt": "HT1080", "parameter": "IC50", "assay.value": "> 1000 nM"}
{"compound": "COc1ccc(C(=O)Cn2c(-c3nonc3N)nc3ccccc32)cc1[N+](=O)[O-]", "tgt": "HT1080", "parameter": "IC50", "assay.value": "100 to 1000 nM"}
{"compound": "Nc1nonc1-c1nc2ccccc2n1CC(=O)c1ccc(Cl)cc1Cl", "tgt": "HT1080", "parameter": "IC50", "assay.value": "> 1000 nM"}
{"compound": "Cc1ccc(/C=C/C(=O)Cn2c(-c3nonc3N)nc3ccccc32)cc1", "tgt": "HT1080", "parameter": "IC50", "assay.value": "> 1000 nM"}
{"compound": "N#CCCNc1nonc1-c1nc2ccccc2n1CC(=O)c1ccc(N)nc1", "tgt": "HT1080", "parameter": "IC50", "assay.value": "< 10 nM"}
{"compound": "Cl.Nc1ccc(C(=O)Cn2c(-c3nonc3N)nc3ccccc32)cc1", "tgt": "HT1080", "parameter": "IC50", "assay.value": "10 to 100 nM"}
{"compound": "CC(=O)Nc1ccc(C(=O)Cn2c(-c3nonc3N)nc3ccccc32)cc1", "tgt": "HT1080", "parameter": "IC50", "assay.value": "100 to 1000 nM"}

----------
We begin with a simple list: items and their reported IC50.
Tested on: HT1080
measurement.notes: MTS proliferation assay, HT1080
Assay type: cell-based, human
condition.label: HT1080, 72 h incubation; read-out: MTS proliferation assay IC 50 HT1080

{"compound": "COc1ccc(C(=O)Cn2c(-c3nonc3N)nc3cc(C)c(C)cc32)cc1 [Example 111]", "IC50": "> 1000 nM"}
{"compound": "Nc1ccc(C(=O)Cn2c(-c3nonc3N)nc3ccccc32)cc1.O=C(O)C(=O)O [Example 62]", "IC50": "10 to 100 nM"}
{"compound": "COc1ccc(C(=O)Cn2c(-c3nonc3N)nc3ccccc32)cc1OC [Example 76]", "IC50": "100 to 1000 nM"}
{"compound": "N#CCCNc1nonc1-c1nc2ccccc2n1COc1ccc(Cl)cc1 [Example 93]", "IC50": "100 to 1000 nM"}
{"compound": "CC(=O)Nc1ccc(C(=O)Cn2c(-c3nonc3N)nc3ccccc32)cc1[N+](=O)[O-] [Example 64]", "IC50": "10 to 100 nM"}
{"compound": "COCCOc1ccc(C(=O)Cn2c(-c3nonc3N)nc3ccccc32)cc1 [Example 77]", "IC50": "100 to 1000 nM"}
{"compound": "Nc1nonc1-c1nc2ccccc2n1CC(=O)c1ccc2ccccc2c1 [Example 42]", "IC50": "10 to 100 nM"}
{"compound": "N#CCCNc1nonc1-c1nc2ccccc2n1COc1ccc(Br)cc1 [Example 94]", "IC50": "10 to 100 nM"}
{"compound": "Nc1nonc1-c1nc2ccccc2n1CC(=O)/C=C/c1ccc(Cl)cc1 [Example 118]", "IC50": "> 1000 nM"}
{"compound": "Nc1nonc1-c1nc2ccccc2n1CC(=O)c1ccc(Cl)cc1 [Example 16]", "IC50": "10 to 100 nM"}
{"compound": "Nc1nonc1-c1nc2ccccc2n1CC(=O)c1ccc(F)cc1 [Example 67]", "IC50": "100 to 1000 nM"}
{"compound": "Nc1ccc(OCn2c(-c3nonc3N)nc3ccccc32)cc1 [Example 99]", "IC50": "> 1000 nM"}
{"compound": "Nc1nonc1-c1nc2ccccc2n1COc1ccc(CO)cc1 [Example 97]", "IC50": "100 to 1000 nM"}
{"compound": "Nc1nonc1-c1nc2ccccc2n1CC(=O)c1ccc([N+](=O)[O-])cc1 [Example 49]", "IC50": "> 1000 nM"}
{"compound": "N#CCCNc1nonc1-c1nc2ccccc2n1CC(=O)c1ccc([N+](=O)[O-])cc1 [Example 57]", "IC50": "100 to 1000 nM"}

----------
Test system: HeLa
measurement.notes: MTS proliferation assay, HeLa
Type: cell-based, human
condition.label: 72 h incubation, read-out: MTS proliferation assay IC 50 HeLa

{"compound": "COc1ccc(C(=O)Cn2c(-c3nonc3N)nc3cc(C)c(C)cc32)cc1", "IC50": "> 1 µM"}
{"compound": "N#CCCNc1nonc1-c1nc2ccccc2n1COc1ccccc1", "IC50": "0.1 to 1 µM"}
{"compound": "COc1ccc(C(=O)Cn2c(-c3nonc3N)nc3ccccc32)cc1[N+](=O)[O-]", "IC50": "0.1 to 1 µM"}
{"compound": "Nc1nonc1-c1nc2ccccc2n1CC(=NO)c1ccc(Cl)cc1 (mixture of isomers)", "IC50": "> 1 µM"}
{"compound": "N#CCCNc1nonc1-c1nc2ccccc2n1CC(=O)c1ccc(Br)cc1", "IC50": "0.01 to 0.1 µM"}
{"compound": "Nc1ccc(C(=O)Cn2c(-c3nonc3N)nc3ccccc32)cc1", "IC50": "0.01 to 0.1 µM"}
{"compound": "CC(C)n1c(-c2nonc2N)nc2ccccc21 [A, reference compound]", "IC50": "> 1 µM"}
{"compound": "Nc1nonc1-c1nc2ccccc2n1CC(=O)c1ccc2c(c1)OCO2", "IC50": "0.01 to 0.1 µM"}
{"compound": "COc1ccc(C(=O)Cn2c(-c3nonc3NCCC#N)nc3ccccc32)cc1", "IC50": "0.01 to 0.1 µM"}
{"compound": "Nc1nonc1-c1nc2ccccc2n1CC(=O)/C=C/c1ccc(Cl)cc1", "IC50": "> 1 µM"}
{"compound": "COc1ccc(C(=O)Cn2c(-c3nonc3N)nc3cc(OC)c(OC)cc32)cc1", "IC50": "> 1 µM"}
{"compound": "Cc1cc2nc(-c3nonc3N)n(CC(=O)c3ccc(Br)cc3)c2cc1C", "IC50": "> 1 µM"}
{"compound": "Cc1ccc(C(=O)Cn2c(-c3nonc3NCCC#N)nc3ccccc32)cc1C", "IC50": "0.01 to 0.1 µM"}
{"compound": "COc1ccc(C(Cn2c(-c3nonc3N)nc3ccccc32)=NO)cc1 (mixture of isomers)", "IC50": "> 1 µM"}
{"compound": "N#CCCNc1nonc1-c1nc2ccccc2n1CC(=O)c1ccc(N)cc1.O=C(O)C(=O)O", "IC50": "0.01 to 0.1 µM"}
{"compound": "Cc1cc2nc(-c3nonc3N)n(CC(=O)c3ccc(-c4ccccc4)cc3)c2cc1C", "IC50": "> 1 µM"}
{"compound": "COc1cc2nc(-c3nonc3N)n(CC(=O)c3ccc(-c4ccccc4)cc3)c2cc1OC", "IC50": "> 1 µM"}
{"compound": "Cc1ccc(C(=O)Cn2c(-c3nonc3N)nc3ccccc32)cc1C", "IC50": "0.01 to 0.1 µM"}
{"compound": "Nc1nonc1-c1nc2ccccc2n1CC(=NO)c1ccc(-c2ccccc2)cc1 (mixture of isomers)", "IC50": "> 1 µM"}
{"compound": "Nc1nonc1-c1nc2ccccc2n1COc1ccc(C=O)cc1", "IC50": "0.1 to 1 µM"}
{"compound": "N#Cc1ccc(C(=O)Cn2c(-c3nonc3N)nc3ccccc32)cc1", "IC50": "> 1 µM"}
{"compound": "Nc1nonc1-c1nc2ccccc2n1CC(=O)c1ccc(Cl)cc1", "IC50": "0.1 to 1 µM"}
{"compound": "COc1ccc(C(=O)Cn2c(-c3nonc3N)nc3ccccc32)cc1OC", "IC50": "0.1 to 1 µM"}
{"compound": "CON=C(Cn1c(-c2nonc2N)nc2ccccc21)c1cccc(OC)c1 (mixture of isomers)", "IC50": "> 1 µM"}
{"compound": "Nc1nonc1-c1nc2ccccc2n1COc1ccc(Br)cc1", "IC50": "0.01 to 0.1 µM"}
{"compound": "Nc1ccc(OCn2c(-c3nonc3N)nc3ccccc32)cc1", "IC50": "> 1 µM"}
{"compound": "Nc1nonc1-c1nc2ccccc2n1CC(=O)c1cccc2ccccc12", "IC50": "0.1 to 1 µM"}
{"compound": "Nc1nonc1-c1nc2ccccc2n1CC(=O)c1ccc2ccccc2c1", "IC50": "0.01 to 0.1 µM"}
{"compound": "Nc1nonc1-c1nc2ccccc2n1CC(=O)c1ccc(C(F)(F)F)cc1", "IC50": "0.1 to 1 µM"}
{"compound": "Nc1ccc(C(=O)Cn2c(-c3nonc3N)nc3ccccc32)cn1", "IC50": "< 0.01 µM"}
{"compound": "CCc1ccc(C(=O)Cn2c(-c3nonc3N)nc3ccccc32)cc1", "IC50": "0.1 to 1 µM"}
{"compound": "N#CCCNc1nonc1-c1nc2ccccc2n1COc1ccc(Cl)cc1", "IC50": "0.1 to 1 µM"}
{"compound": "Nc1nonc1-c1nc2ccccc2n1COc1cccc(C(F)(F)F)c1", "IC50": "0.1 to 1 µM"}
{"compound": "COc1cc2nc(-c3nonc3N)n(CC(=O)c3ccccc3)c2cc1OC", "IC50": "> 1 µM"}
{"compound": "N#CCCNc1nonc1-c1nc2ccccc2n1CC(=O)c1ccc(N)cc1", "IC50": "0.01 to 0.1 µM"}
{"compound": "Cc1ccc(OCn2c(-c3nonc3N)nc3ccccc32)cc1C", "IC50": "0.01 to 0.1 µM"}

The measurements presented in this section are drawn from patent USRE42890E1.
